- ASSAY_PROTOCOL: Aqueous solubility
- Type: physicochemical
- PROTOCOL_CONDITIONS: aqueous medium (not further specified)
ENDPOINT: solubility

Exercise: Entry COc1cc2ncnc(Nc3c(F)ccc(O)c3C)c2cc1OC [Compound 36] needs its solubility filled in; supply it.
Solution: > 100 µM

----------
- TARGET_SYSTEM: KDR (Homo sapiens, UniProt P35968)
- Sequence (P35968 20-1356): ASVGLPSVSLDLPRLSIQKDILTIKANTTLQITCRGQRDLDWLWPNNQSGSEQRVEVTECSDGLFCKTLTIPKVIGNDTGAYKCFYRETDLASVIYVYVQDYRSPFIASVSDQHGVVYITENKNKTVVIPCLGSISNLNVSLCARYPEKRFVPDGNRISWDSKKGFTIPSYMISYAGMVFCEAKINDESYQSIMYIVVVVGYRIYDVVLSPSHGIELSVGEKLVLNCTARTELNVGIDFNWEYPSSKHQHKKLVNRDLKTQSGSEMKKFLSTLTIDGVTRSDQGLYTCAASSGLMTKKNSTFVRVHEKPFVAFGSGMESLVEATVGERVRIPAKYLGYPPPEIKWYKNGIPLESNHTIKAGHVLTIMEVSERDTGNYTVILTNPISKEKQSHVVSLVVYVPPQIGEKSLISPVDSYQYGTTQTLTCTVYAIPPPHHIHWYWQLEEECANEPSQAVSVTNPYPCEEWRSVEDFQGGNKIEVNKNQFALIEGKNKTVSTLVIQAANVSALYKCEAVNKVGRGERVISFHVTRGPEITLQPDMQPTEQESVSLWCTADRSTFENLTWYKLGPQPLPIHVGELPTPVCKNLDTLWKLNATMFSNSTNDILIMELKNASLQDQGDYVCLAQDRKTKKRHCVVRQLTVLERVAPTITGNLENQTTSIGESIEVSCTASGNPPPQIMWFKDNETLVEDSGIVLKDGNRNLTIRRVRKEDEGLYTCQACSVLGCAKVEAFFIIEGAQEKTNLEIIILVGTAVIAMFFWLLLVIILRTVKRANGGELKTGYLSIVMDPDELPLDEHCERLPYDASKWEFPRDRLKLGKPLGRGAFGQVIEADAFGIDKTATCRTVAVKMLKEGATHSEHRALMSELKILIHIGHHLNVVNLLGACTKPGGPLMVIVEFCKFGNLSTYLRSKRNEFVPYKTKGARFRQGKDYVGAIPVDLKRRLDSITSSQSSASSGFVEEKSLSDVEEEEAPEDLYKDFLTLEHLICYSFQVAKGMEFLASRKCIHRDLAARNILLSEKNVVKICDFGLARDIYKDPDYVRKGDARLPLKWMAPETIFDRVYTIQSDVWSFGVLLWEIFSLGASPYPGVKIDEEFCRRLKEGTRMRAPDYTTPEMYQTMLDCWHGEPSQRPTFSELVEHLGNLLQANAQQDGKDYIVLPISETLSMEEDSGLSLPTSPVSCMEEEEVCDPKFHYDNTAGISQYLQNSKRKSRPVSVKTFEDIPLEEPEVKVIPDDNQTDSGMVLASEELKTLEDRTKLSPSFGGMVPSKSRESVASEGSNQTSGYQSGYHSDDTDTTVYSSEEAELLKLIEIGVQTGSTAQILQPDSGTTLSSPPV
// boundary case: IC50 equal to 0.1 µM maps to f; strictly smaller maps to t

Here's what some known entries look like.
COc1cc2ncnc(Nc3cccc(O)c3F)c2cc1OC f
COc1cc2ncnc(Nc3cccc(O)c3OC)c2cc1OC f
COc1cc2ncnc(Nc3ccc(Br)cc3F)c2cc1OC f
COc1cc2ncnc(Nc3cc(O)ccc3F)c2cc1OC t

Now for another entry.
Exercise: Take the molecule COc1cc2ncnc(Nc3c(F)ccc(O)c3Cl)c2cc1OC and say whether its IC50 is less than 0.1 µM.
Solution: f

// data source = paper PMC4896931
